experiment: label from the status in PepcDB records
property.label: protein production

• MLIDPIELYRYPEKWIKDRDAEKKVRSGLYILTEDGYLRRGITTGTTASAAAVAAIASLKEKVEKVKVSTPAGVDVEVEVEAEKGFARVRKFSGDHEFDVTNGIIFEAEVCETSGIFFGRGVGVKAGEKAVSRSAKLQILENFIKASREFNFSGGVRISVPDGEEVAKKTGNEKVGIKGGISILGTTGFVEPWCKKLVETKLKIAMQYHRIAITTGRKAWLYARKKFPEYQPFVFGVHIDEALKHPGEKIIVGFPGLLKIWAGSRDRIEERAREEGVRVVVIEDDMDSWVWDVQGTDH = not failed
• MEKTLETVPLERKKREKEQFRKLFIGGLSFETTEESLRNYYEQWGKLTDCVVMRDPASKRSRGFGFVTFSSMAEVDAAMAARPHSIDGRVVEPKRAVAREESG = not failed
• MPHSSTNITKAVLQGRGLYPISLVTGAMFTEEMYVVLESTTRAETFLTPMELQAKLMEYLTGTEVSLSPDLLALPDVESRAQYLMTTACELQLANGGYLQWYAVRLEKLEHHHHHH = not failed

---

assay: label from the status in PepcDB records
property.label: protein production

Example cases with answers are listed next.
* MVEIFLRTLPFFVIIGLGFWAGRTRFFTPEATAYLTKFVFFFALSAMLFRFAATLPFAEIFNGQLVMGYLWGTAGVYGIASLVAFLRKLDVPTAAVEAQCAAIGNVGFLGLPMLAMLFGEAAIGPVMLVLSVDLIVFSSLIVILINGGRDGRLSLGTLRLIGMGLLKNPMIVSISAGLIWSSLRLPIPAPLNDFLTILGGAATPGALFAIGASLAGRSAERVQIAAWLSLCKLVIHPILVALAVLWVFPVDAFSASVAIAAAALPVAGNVYMLAAHYGVAPQRASAAILLSTAVSILTVPAFIAWVTSA | failed
* MERITDVPESPAQSADPARVNDYDSFAEAYSAETENNLVNAYYARPAMLALAGDVAGRRILDAGCGSGPLSAALRDRGAVVTGIDASAGMLALARRRLGDDVALHVVDLSDRLPFDDGAFDDVVASLVLHYLEDWGPTLAELRRVLRPGGRLIASVDHPFVAYTFQDPRPDYFATTSYTFDWTFNGQSVPMKFWRKPLHAMTDAFTTAGFRLSVISEPQPDPAAIELFPDAFHDLSTKTCFLFFVVEVPPSATGSDDY | failed
* MTPNEIAAKLSGLATKYHIRDVTLLAGRLLMSFIFLHEGVTLATHFDGAARAMAALGVGLPLFVATIALQLGAGLSVASGLLTRLGGIGLGLFCLATALLFHTNFASQNELLHFEKDLAISGGMFVLAAVGAGRFSLDWLLAGYLQKRQRDKEMARALLAVENQFSVDVQLPV | failed
* MNFRTGQPSDAAALAAISIEVWLGTYMRKGVSAFFAEYALNEFTSTKMASLLKDPNEHVIVSENEGGIDAFIRLGQGRAAPVSGCSTLEIATLYVQPRHHRRGLGRALLEQGLAYARQASAPSVWLTTNSENAPAIAFYLEQGFEKVGTTHFNIGDQ | not failed
* MSSEVEQNVPCEACGCSAEMGFVIKEGDDVAEVSIFADNKVLLESEFSNYLALAKEVCADVEHSIVITEDEKELHARLKFSCSAEKLIYELKTRSLRRLEHHHHHH | failed

[ask] Read off the recorded protein production for MAHACVSTSASSLRFTAGFVSASPNGSSFDSPKLSLPFEPLRSRKTNKLVSDRKNWKNSTPKAVYSGNLWTPEIPSPQGVWSIRDDLQVPSSPYFPAYAQGQGPPPMVQERFQSIISQLFQYRIIRCGGAVDDDMANIIVAQLLYLDAVDPTKDIVMYVNSPGGSVTAGMAIFDTMRHIRPDVSTVCVGLAASMGAFLLSAGTKGKRYSLPNSRIMIHQPLGGAQGGQTDIDIQANEMLHHKANLNGYLAYHTGQSLEKINQDTDRDFFMSAKEAKEYGLIDGVIMNPLKALQPLAAA
[reply] failed

[ask] Fill in protein production for record MVKVAHVQLSSCCGCLVSLADTYEKLLDVLGAIDLVYSQTLADVREVPDDVDIILLEGSVCLSDHHAMEVALDSRKKAKILVALGACAATGNVTRFSKGNQPSKPVHDAFAPLTEVVKCDLAIPGCPPSPESIVAVVLAALNGDMEYLEPYAELAKYGSEACGCDLITKVINKSLCMGCGSCAAACPTRAVSMDAGRPLVDKEICIKCGSCSVQCPRIRFPDLIEKIE
[reply] failed

[ask] Retrieve protein production measured for MNAKPKDTVIANARIVLADRVIEQGWLALANGRVAEIGEGRAPAGAEDAGGDLIMPGLIELHTDHLEAHYVPRPKVFWNPVAAVVSYDGQLATSGITTVFDSLRVWREDGAEEVDGRAGVLAAAITTARDADLLRADHFLHLRCEIPMPSVVEEAKELIDRPDVKLMSLMDHTPGQRQFRDEGKLRDYYRGKNGGKTDAQLDELFAKRFEYQKAYAATNMREIVALAHQYNIPLASHDDTTEENVADAVRDRVSVAEFPTTLEAARGLHQAGIDILMGAPNVVRGGSHSGNIAAVDLAREGLLDILSSDYIPSSLLMAALQLPEHVPAISLPAAVRTVTKAPAEAVGLSDRGEIAVGKRADLIRVHIAGSVPVVRSVWREGGRVA and print it.
[reply] failed

---

experiment: label from the status in PepcDB records
property.label: protein production

• MRVSVVIPARNEEAYLPSALEAVLAQTLPPFEVIVVDNASTDRTREVAEALGARVVFCGRRGVAYARQAGLLAARGEWVAMTDADSLPTPRWLERLAHKAPGAVAVYGPLRFYGVSPLEAALSEWGYRAFLNLMALLGRPNLAGANMMVLKEAALRVGGFPEVEAREDVLLGWRLKALGPVRYAGDALVLTSARRLQGGWGRFLLRQARNLLGDPRGYFGEAGERERLEHHHHHH = not failed
• MKLETIDYRAADSAKRFVESLRETGFGVLSNHPIDKELVERIYTEWQAFFNSEAKNEFMFNRETHDGFFPASISETAKGHTVKDIKEYYHVYPWGRIPDSLRANILAYYEKANTLASELLEWIETYSPDEIKAKFSIPLPEMIANSHKTLLRILHYPPMTGDEEMGAIRAAAHEDINLITVLPTANEPGLQVKAKDGSWLDVPSDFGNIIINIGDMLQEASDGYFPSTSHRVINPEGTDKTKSRISLPLFLHPHPSVVLSERYTADSYLMERLRELGVL = not failed

---

assay: label from the status in PepcDB records
property.label: protein production

• MTPVQLKNYLEQLVGNQIKTSTMIWGPPGIGKSSIVAQIAEEGKLRFIDLRLSQLAPTDLRGLPVAIPTSKTKPQTGTSAWYPPEFLPKDGAGILFLDELNMAPPAMQGVAQQLILDRRVGSYEVPTDWFIWAAGNRKEDRASVFEMPAPLANRFLHLDVQPDFESFKQYALEQKYHEQVIAFLSFRPGLIHKLDLQRPAWPSPRSWAIANGLHQVNLDVSPAVGEGCAAEFSAFVQLYKDLPDLEAIFRGQGQNIGFPTEPSSGYASTIGLAVRAKDATAGVNAFHWLTDKADSEWVQLFVTDMAGQLRRAGHLGALSIMAKKEPKLKQFMQGYQELLAILEHHHHHH = not failed
• MQIGPGSATRLEFRRHFAATPEQLWAALTSPALLPAWLFARGWPMTECVFEPHKGGLIRQVWTGPEGRTRGLTGRVILAEPPHRLIHSELYDEDWTGGETLVTLQLLPVEGGTELAMAVDYATPEARDAVAASAMATEMEEAYRHLDVMLAALEHHHHHH = not failed

---

test: label from the status in PepcDB records
property.label: protein production

- MKVPEAAISRLITYLRILEELEAQGVHRTSSEQLGELAQVTAFQVRKDLSYFGSYGTRGVGYTVPVLKRELRHILGLNRKWGLCIVGMGRLGSALADYPGFGESFELRGFFDVDPEKVGRPVRGGVIEHVDLLPQRVPGRIEIALLTVPREAAQKAADLLVAAGIKGILNFAPVVLEVPKEVAVENVDFLAGLTRLSFAILNPKWREEMMG: not failed
- MGKVYKKVELVGTSEEGLEAAIQAALARARKTLRHLDWFEVKEIRGTIGEAGVKEYQVVLEVGFRLEET: not failed
- EQTTAADLPLTLAIAREVGNLLLTDSLLAETNRHLNQLNALLESMDDGVISWDEQGNLQFINAQAARVLRLDATASQGRAITELLTLPAVLQQAIKLAHPLKHVEATFESQHQFIDAVITLKPIIETQGTSFILLLHP: failed
- MLALVKRNCLLYFRNRSGVVFSLLGALISFILYLVFLKDNIESSWSQIDNTNQLLDTWLIGGTLAITGITTTLSNLSQWTKDKESHVRQDLLITDLGYWPLSLSYIISAALVGFIMQAIMLTIMGTYFYFTDKVTLSWTVLLQLIFIMILNTLISTIINALIVNRIQSVDNLGKLATIFGAASGFLVGTYVPIGALPDTAQTIMKLTPGAYIASLFRQTLMSDTLKDNFSQANAREHFEKMMGIRLNWQNLLTNTDTYYIVIGILVAGVLIFCLQNALRKYQALI: failed
- MLVCAAFSGGAGASDAGALLEAARRGDTAQVASLLERKVEVDAPSADGSTPLLLATANDHLAVARQLIEAGADVNRQNSRLDSPYLLAGAEGRLEILRLTLLHGADLKSTNRYGGTALIPACERGHVEVVKTLLQAGVDPNHVNKLGWTGLLEAILLSDGGPRHQEIVRLLIDAGADVNLADADGVSPLAHARQRGQGGIERLLLAAGAQ: failed

Could you now consider this next sequence?
[ask] // Input: MKQLNDGDFIKIEFEMRVGEEKKLVSTSKADLAKENDIFDENARYGDIVVIVGQEGIFKEVNEAFRKAEPGQEVEVEVPPEDAFGQRLPSNIKIHTMREFQRLEHHHHHH . Output its protein production only.
[reply] not failed
